These entries and their values trace back to ChEMBL document CHEMBL1122816.

A collection of compounds and their measured IC50
molecular target: GABA B receptor (Rattus norvegicus, UniProt O88871+Q9Z0U4); experiment: Displacement of [3H]baclofen from Gamma-aminobutyric acid type B receptor in rat brain membranes
Sequence (Q9Z0U4 whole entry): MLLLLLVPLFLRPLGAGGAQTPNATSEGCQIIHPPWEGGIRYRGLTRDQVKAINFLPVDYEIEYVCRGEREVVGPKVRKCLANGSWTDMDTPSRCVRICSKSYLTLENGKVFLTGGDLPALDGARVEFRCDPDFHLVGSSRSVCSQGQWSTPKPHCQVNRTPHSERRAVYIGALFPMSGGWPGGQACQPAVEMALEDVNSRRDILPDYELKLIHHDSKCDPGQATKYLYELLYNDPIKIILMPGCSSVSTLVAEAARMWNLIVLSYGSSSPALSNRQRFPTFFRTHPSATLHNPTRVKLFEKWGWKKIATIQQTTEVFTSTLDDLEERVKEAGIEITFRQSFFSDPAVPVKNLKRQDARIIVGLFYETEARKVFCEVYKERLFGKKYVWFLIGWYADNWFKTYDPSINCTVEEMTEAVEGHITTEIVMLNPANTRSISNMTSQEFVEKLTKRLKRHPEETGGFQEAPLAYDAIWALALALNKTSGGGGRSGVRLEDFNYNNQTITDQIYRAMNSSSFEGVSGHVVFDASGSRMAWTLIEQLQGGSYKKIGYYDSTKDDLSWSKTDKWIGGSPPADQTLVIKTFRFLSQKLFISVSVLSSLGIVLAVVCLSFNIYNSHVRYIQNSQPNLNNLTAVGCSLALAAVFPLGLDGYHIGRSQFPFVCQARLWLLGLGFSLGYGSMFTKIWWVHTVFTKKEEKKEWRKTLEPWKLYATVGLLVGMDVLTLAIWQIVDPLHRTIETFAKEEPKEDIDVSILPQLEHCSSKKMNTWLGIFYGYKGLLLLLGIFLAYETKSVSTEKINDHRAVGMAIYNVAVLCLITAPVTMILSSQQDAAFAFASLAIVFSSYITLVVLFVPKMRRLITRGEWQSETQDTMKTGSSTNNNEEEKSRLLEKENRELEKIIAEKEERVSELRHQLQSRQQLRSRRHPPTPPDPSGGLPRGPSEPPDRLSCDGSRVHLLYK
Sequence (O88871 whole entry): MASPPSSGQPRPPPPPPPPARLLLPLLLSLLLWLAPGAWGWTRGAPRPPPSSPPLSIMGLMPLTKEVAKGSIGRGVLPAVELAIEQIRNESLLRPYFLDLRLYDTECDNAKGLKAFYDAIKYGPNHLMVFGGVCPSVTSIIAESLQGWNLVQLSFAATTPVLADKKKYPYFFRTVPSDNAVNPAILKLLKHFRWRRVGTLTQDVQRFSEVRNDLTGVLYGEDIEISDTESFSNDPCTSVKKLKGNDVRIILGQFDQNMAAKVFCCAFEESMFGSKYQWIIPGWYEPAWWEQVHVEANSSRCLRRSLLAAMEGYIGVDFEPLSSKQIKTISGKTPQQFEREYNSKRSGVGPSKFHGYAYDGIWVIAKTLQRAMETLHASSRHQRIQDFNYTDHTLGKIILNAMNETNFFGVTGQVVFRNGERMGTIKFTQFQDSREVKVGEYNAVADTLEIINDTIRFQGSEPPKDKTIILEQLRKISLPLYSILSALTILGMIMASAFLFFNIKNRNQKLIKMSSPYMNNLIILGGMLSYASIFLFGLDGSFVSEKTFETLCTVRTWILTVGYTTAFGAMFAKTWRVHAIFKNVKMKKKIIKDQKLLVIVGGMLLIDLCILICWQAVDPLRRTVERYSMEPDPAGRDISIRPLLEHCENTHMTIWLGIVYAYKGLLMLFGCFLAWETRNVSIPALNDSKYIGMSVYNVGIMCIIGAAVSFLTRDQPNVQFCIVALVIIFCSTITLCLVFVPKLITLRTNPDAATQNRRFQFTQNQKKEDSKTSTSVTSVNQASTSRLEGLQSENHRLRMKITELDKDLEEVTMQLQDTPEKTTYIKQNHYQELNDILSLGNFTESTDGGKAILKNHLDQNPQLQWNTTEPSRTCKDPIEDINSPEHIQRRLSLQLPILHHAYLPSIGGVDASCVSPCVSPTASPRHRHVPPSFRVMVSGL

>>> data_value("NCC1CC(=O)C=C(O)C1 (configuration not stated)")
"> 100 µM"

Now for another entry.
Need IC50 of O=C(O)C1CCCNC1 (configuration not stated) [NIPECOTIC ACID] , thanks.
> 100 µM
